Target: Prostaglandin G/H synthase 1 (Ovis aries) (UniProt P05979)
Sequence (P05979 whole entry): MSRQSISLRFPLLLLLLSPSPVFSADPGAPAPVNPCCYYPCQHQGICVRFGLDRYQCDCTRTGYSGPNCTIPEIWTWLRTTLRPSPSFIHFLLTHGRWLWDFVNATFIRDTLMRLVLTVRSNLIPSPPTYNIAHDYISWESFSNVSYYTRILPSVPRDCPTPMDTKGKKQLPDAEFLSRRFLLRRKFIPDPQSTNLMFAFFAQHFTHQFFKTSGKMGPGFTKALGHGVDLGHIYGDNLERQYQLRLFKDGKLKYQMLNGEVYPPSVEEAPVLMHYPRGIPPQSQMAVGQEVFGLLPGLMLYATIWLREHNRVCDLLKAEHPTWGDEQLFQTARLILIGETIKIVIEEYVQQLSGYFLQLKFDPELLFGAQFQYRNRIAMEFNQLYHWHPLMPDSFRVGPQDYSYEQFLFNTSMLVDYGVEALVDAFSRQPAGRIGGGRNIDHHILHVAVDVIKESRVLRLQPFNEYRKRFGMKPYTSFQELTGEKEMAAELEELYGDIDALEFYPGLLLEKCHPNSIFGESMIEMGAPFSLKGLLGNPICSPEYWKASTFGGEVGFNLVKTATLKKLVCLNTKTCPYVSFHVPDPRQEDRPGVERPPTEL
Assay: Inhibition of ovine COX1 using arachidonic acid as substrate at 30 uM preincubated for 10 mins before substrate addition measured after 5 mins by EIA
quantity_name: inhibition (%)

Reference set, count: 3
smiles_representation | readout_unit | data_value
COc1cccc2c1C(=O)c1c(OC)cc(C)cc1C2=O | % | 59.2
CCOc1cccc2cc(C)c(C(C)=O)c(O)c12 | % | 62.1
CC(=O)c1c(C)cc2cccc(O)c2c1O | % | 68.2

[a] CCCCOc1c(C(C)=O)c(C)cc2cccc(O)c12
[b] COc1c(C(C)=O)c(C)cc2cccc(O)c12
**Q:** Higher inhibition: a or b ? # reply format: chosen label
**A:** b
(b: 65.5%, a: 40.2%)
